B1: HDV Ribozyme (parent)
chain: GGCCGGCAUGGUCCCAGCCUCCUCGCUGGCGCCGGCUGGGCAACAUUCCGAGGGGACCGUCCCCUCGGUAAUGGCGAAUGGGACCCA

- Variants of: B1
- Test description: self-cleavage, relative activity (ratio to wild type); higher = more cleavage; co-transcriptional
Binary call on self-cleavage: t from 0.2 upward, f beneath that.

# Item sequence, Class label
records = [
    ("GGCCGGCAUGGUCACAGCCUCCUCGCUGGCGCCGGCUGGGCAACAUUCCGAGGGGACCGUCCCCUCGGUCAUGGCGAAUGGGACCCA", "t"),
    ("GGCCCGCAUGGUCCCAGCCUCCUCGCUGGCACCGGCUGGGCAACAUUCCGAGGGGACCGUCCCCUCGGUAAUGGCGAAUGGGACCCA", "f"),
    ("GGCCGGCAUGGUCCCAGCCUCCUCGCUGGCGCCGGCUGGGCAACAUUCCGAGGGGACCGGCCCCUCGGUAAUGGCGAAAGGGACCCA", "t"),
    ("GGCCGGCAUGGUCCCAGCCUCCUCGCUGGCGCCGGCUGGGCAACAUUCCCAGGGGACCGUCCCCUCGGUAAUGGCGAGUGGGACCCA", "t"),
    ("GGCCGGCAUGGUCCGAGCCUCCUCGCUGGCGCCGGUUGGGCAACAUUCCGAGGGGACCGUCCCCUCGGUAAUGGCGAAUGGGACCCA", "t"),
    ("GGACGGCAUGGUCCCAGCCUCCUCGCUGGCGCGGGCUGGGCAACAUUCCGAGGGGACCGUCCCCUCGGUAAUGGCGAAUGGGACCCA", "f"),
    ("GGCCGGCAUGGUCCCAGCCUCCUCGCUGGCGCAGGCUGGGCAACAUUCCGAGGGGACCGUCCCCUCGGUAAUGGCGAAUGGGACCGA", "t"),
    ("GGCCGGCAUGGUCCCAGCCUCCUCGCUGGCGCCGGCUCGGCAACAUUCCGAGGGGACCGUCCCCUCGGUAAUGGCGAAUGUGACCCA", "f"),
    ("GGCCGGCAUGGUCCCAGCCUCCUCGCUGGCACCGGCUGGGCAACAUUCCGAGGGGACCGUCCCCUCGGUAAUGGCGAAUGGUACCCA", "f"),
    ("GGCCGGCAUGGUCCCAGCCUCCUCGCUGGCGCCGGCUGGGCAACAUUCCGAGAGGACCGUCCCCUCGGUAAUGGCGAAUGGGAUCCA", "t"),
    ("GGCCGGCAUGGUCGCAGCCUCCUCGCUGGCGCCGGCUGGGCAACAUUCCCAGGGGACCGUCCCCUCGGUAAUGGCGAAUGGGACCCA", "t"),
    ("GGCCUGCAUGGUCCCAGCCUCCUCGCUGGCGCCGGCUGGGCAACAUUCCGAGGGGACCGUCCCCUCGGUAAUGGCGAAUAGGACCCA", "t"),
    ("GGCCGGCGUGGUCCCAGCCUCCUCGCUGGCGCCGGCUGGGCAACAUUCCGAGGUGACCGUCCCCUCGGUAAUGGCGAAUGGGACCCA", "t"),
    ("GGCCGGAAUGGUCCCAGCCUCCUCGCUGGCGCCGGCUGGGCAACAUUCCGAGGGGACCGUCCCCUUGGUAAUGGCGAAUGGGACCCA", "t"),
    ("GGCCGGCAUGGAUCCAGCCUCCUCGCUGGCGCCGGCUGGGCAACAUUCCGAGGGGACCGUCCCCUCGGUAAUGGCGAAUGGGACCCA", "f"),
    ("GGCCGGCAUGGUCCCAGCCUCCUCGCUGGCGCCGGCUGGGCAACAUUCCGAGGGGACCGUCCCCUAGGUAAUGGCGAAAGGGACCCA", "t"),
    ("GGCUGGCAUGGUCCCAGCCUCCUCGCUGGCGCCGGCUGGGCAACAUUCCGAGGGGACCGUCCCCUCGGUAAUGGCCAAUGGGACCCA", "t"),
    ("GGCCGGCAUGGUCCCAGCCUCCUCGCUGGCGCCGGCUCGGCAACAUUCCGAGGGGACUGUCCCCUCGGUAAUGGCGAAUGGGACCCA", "t"),
    ("GGCCGGCAUGGUCCCAGCUUCCUCGCUGGCGCCGUCUGGGCAACAUUCCGAGGGGACCGUCCCCUCGGUAAUGGCGAAUGGGACCCA", "f"),
    ("GGCCGGCAUGGUCCCAGCCUCCUCGCUGGCGCCGGCUGGGCAACGUUCCAAGGGGACCGUCCCCUCGGUAAUGGCGAAUGGGACCCA", "t"),
    ("GGCCGGCAUGGUCCCAGCCUCCUCGCUUGCGCCGGCUGGGCGACAUUCCGAGGGGACCGUCCCCUCGGUAAUGGCGAAUGGGACCCA", "f"),
]
